- Tested on: Klebsiella pneumoniae
- assay explanation: Minimum inhibitory concentration (MIC) against gram negative bacteria Klebsiella pneumoniae MGH-2.
- Assay type: functional
- study conditions: Klebsiella pneumoniae; read-out: MIC
property measured: MIC (µg/mL)

1. NC1CCN(c2c(F)cc3c(=O)c(C(=O)O)cn(C4CC4)c3c2F)C1 (centres undefined): 0.025
2. NC1CCCN(c2cc3c(cc2F)c(=O)c(C(=O)O)cn3C2CC2)C1 (centres undefined): 0.2
3. C[C@@H]1CN(c2c(F)cc3c(=O)c(C(=O)O)cn(C4CC4)c3c2F)CCN1: 0.025
4. NC1CCN(c2c(F)cc3c(=O)c(C(=O)O)cn(C4CC4)c3c2C(F)(F)F)CC1: 0.4
5. CCNCC1CCN(c2c(F)cc3c(=O)c(C(=O)O)cn(C4CC4)c3c2C(F)(F)F)C1 (centres undefined): 0.8
6. CC1(CN)CCN(c2c(F)cc3c(=O)c(C(=O)O)cn(C4CC4)c3c2C(F)(F)F)C1 (centres undefined): 0.4
7. NC1CCN(c2c(F)cc3c(=O)c(C(=O)O)cn(C4CC4)c3c2F)CC1: 0.1
8. O=C(O)c1cn(C2CC2)c2c(F)c(N3CCNCC3)c(F)cc2c1=O: 0.05
9. CC1(CN)CCN(c2c(F)cc3c(=O)c(C(=O)O)cn(C4CC4)c3c2F)C1 (centres undefined): 0.025

These data points were gathered from ChEMBL document CHEMBL1125291.
